# target_system: OR2W1 (Homo sapiens, UniProt Q9Y3N9)
# Construct: expressed in transfected cells; host or cells: HEK293
# Sequence (Q9Y3N9 whole entry): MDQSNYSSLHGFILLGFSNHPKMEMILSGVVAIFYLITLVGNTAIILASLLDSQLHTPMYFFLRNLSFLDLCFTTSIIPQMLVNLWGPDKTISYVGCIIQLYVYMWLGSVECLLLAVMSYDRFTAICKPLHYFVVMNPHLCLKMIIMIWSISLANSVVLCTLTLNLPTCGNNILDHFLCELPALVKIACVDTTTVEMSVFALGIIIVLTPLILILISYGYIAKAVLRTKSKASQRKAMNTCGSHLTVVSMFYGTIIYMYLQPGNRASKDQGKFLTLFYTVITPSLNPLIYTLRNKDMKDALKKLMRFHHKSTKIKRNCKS
# assay: Luciferase reporter assay: suppression of the skatole response of OR2W1 expressed in HEK293 cells
# Format: cell-based
# assay_setup: 4 h; test substance 100 μM mixed with 300 μM skatole, HEK293 cells expressing OR2W1; read-out: Inhibition rate 2W1

molecule: CCCCCCCC1CCC(=O)O1 (stereo not shown) [γ-undecalactone, 5-Heptyl dihydro-2(3H)-furanone]
inhibition at 100 µM: 50 to 80%

molecule: C=C1CCCC(C)(C)C1C=CC(=O)CC (stereo not shown)
inhibition at 100 µM: 50 to 80%

molecule: C=C(C)C1CC=C(C=O)CC1 (stereo not shown)
inhibition at 100 µM: < 20%

molecule: C=CC(C)=CCC(C)(C)C(=NO)C(C)C
inhibition at 100 µM: 50 to 80%

molecule: CC(C)Cc1ccc(CC(C)C=O)cc1 (stereo not shown)
inhibition at 100 µM: 20 to 50%

molecule: CC=CC(=O)C1C(C)C=CCC1(C)C (stereo not shown)
inhibition at 100 µM: 20 to 50%

molecule: CC(C)=CCCC(C)CC=O (stereo not shown)
inhibition at 100 µM: 20 to 50%

molecule: CC(CC=O)CCCC(C)(C)O (stereo not shown) [hydroxycitronellal, 7-Hydroxy-3,7-dimethyl-octanal]
inhibition at 100 µM: 20 to 50%

molecule: O=C1CCCCCCCCCCCCCCO1 [pentalide, Oxacyclohexadecan-2-one]
inhibition at 100 µM: 50 to 80%

molecule: CC/C=C\CC1=C(C)CCC1=O [cis-jasmone]
inhibition at 100 µM: 50 to 80%

molecule: CC(=O)OCCC(C)CCC=C(C)C (stereo not shown) [citronellyl acetate, 3,7-Dimethyl-6-octen-1-yl acetate]
inhibition at 100 µM: 20 to 50%

molecule: CC(=O)C1=C(C)C2CC3(C1)C(C)CCC3C2(C)C (stereo not shown)
inhibition at 100 µM: > 80%

molecule: COC(C)(C)CCCC(C)CC=O (stereo not shown)
inhibition at 100 µM: 20 to 50%

molecule: CCC(O)COC1CCCCC1C(C)(C)C (stereo not shown)
inhibition at 100 µM: > 80%

molecule: O=C1CCCCCCC=CCCCCCCC1
inhibition at 100 µM: > 80%

molecule: CC(C=O)C1CCCCC1 (stereo not shown)
inhibition at 100 µM: 20 to 50%

molecule: CC1COCc2cc3c(cc21)C(C)(C)C(C)C3(C)C (stereo not shown) [Galaxolide]
inhibition at 100 µM: 50 to 80%

molecule: CCCCCC1C(=O)CCC1CC(=O)OC (stereo not shown) [methyl dihydrojasmonate]
inhibition at 100 µM: 50 to 80%

molecule: CC(CO)CC(C)c1ccccc1 (stereo not shown)
inhibition at 100 µM: < 20%

###

# target_system: OR5P3 (Homo sapiens)
# Construct: expressed in transfected cells; host or cells: HEK293
# Sequence (Q8WZ94 whole entry): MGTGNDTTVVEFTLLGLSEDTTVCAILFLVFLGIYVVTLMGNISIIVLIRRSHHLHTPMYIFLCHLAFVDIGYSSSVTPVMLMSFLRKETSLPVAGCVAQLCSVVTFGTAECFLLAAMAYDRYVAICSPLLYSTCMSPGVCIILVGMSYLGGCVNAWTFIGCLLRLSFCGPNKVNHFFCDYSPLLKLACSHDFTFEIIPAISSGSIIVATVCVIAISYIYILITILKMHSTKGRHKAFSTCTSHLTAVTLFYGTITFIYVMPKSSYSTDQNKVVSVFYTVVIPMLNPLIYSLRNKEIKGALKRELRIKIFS
# assay: Luciferase reporter assay: suppression of the skatole response of OR5P3 expressed in HEK293 cells
# Assay type: cell-based
# assay_setup: test substance 100 μM mixed with 300 μM skatole, HEK293 cells expressing OR5P3
measure_name: Inhibition rate 5P3

compound: CC12CCC(C1)C(C)(C)C2O (stereo not shown)
data_value: C (C >20%)
//
compound: CC=CC(=O)C1C(C)C=CCC1(C)C (stereo not shown)
data_value: C (C >20%)
//
compound: CC(C=O)C1CCCCC1 (stereo not shown)
data_value: C (C >20%)
//
compound: O=C1CCCCCCCCCCCCCCO1 [pentalide, Oxacyclohexadecan-2-one]
data_value: B (B >50%)
//
compound: O=C1CCCCCCC=CCCCCCCC1
data_value: C (C >20%)
//
compound: CCCCCCOC(=O)c1ccccc1O [hexyl salicylate, n-Hexyl-o-hydroxy benzoate]
data_value: C (C >20%)
//
compound: C=CCCC(=O)C1=CCCC(C)(C)C1
data_value: B (B >50%)

###

molecules and their reported inhibition at 100 µM
# target_system: OR8H1 (Homo sapiens)
# Construct: expressed in transfected cells; host or cells: HEK293
# Sequence (Q8NGG4 whole entry): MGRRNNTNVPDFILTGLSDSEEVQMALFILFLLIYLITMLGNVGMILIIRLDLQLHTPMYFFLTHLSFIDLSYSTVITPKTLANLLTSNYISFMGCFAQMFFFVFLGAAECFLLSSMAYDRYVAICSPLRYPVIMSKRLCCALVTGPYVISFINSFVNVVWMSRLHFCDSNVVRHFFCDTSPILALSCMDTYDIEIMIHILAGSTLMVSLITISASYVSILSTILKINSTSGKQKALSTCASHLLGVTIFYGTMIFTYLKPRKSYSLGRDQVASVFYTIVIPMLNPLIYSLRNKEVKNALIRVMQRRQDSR
# assay: Luciferase reporter assay: suppression of the skatole response of OR8H1 expressed in HEK293 cells
# Assay type: cell-based
# assay_setup: 4 h; test substance 100 μM mixed with 300 μM skatole, HEK293 cells expressing OR8H1; read-out: Inhibition rate 8H1
# Protocol: A reaction solution having a composition shown in Table 1 was prepared on a clean bench, and left to stand for 15 minutes. The solution was dispensed to each well of a 96-well plate (BD). […] Cell culturing was performed for four hours in a CO2-incubator, whereby the luciferase gene sufficiently expressed in the cells. Luciferase activity was measured by means of a Dual-Glo™ luciferase assay system (promega) according to an instruction manual thereof. […]

molecule: CC(C)(C)C1CCC(O)CC1 (stereo not shown)
inhibition at 100 µM: > 80%

molecule: CC(=O)C1=C(C)C2CC3(C1)C(C)CCC3C2(C)C (stereo not shown)
inhibition at 100 µM: > 80%

molecule: CC(C)=CCCC(C)CC=O (stereo not shown)
inhibition at 100 µM: < 20%

molecule: CC(C)c1cccc(C(C)CC=O)c1 (stereo not shown) [Florhydral]
inhibition at 100 µM: 50 to 80%

###

# target_system: OR5K1 (Homo sapiens)
# Construct: expressed in transfected cells; host or cells: HEK293
# Sequence (Q8NHB7 whole entry): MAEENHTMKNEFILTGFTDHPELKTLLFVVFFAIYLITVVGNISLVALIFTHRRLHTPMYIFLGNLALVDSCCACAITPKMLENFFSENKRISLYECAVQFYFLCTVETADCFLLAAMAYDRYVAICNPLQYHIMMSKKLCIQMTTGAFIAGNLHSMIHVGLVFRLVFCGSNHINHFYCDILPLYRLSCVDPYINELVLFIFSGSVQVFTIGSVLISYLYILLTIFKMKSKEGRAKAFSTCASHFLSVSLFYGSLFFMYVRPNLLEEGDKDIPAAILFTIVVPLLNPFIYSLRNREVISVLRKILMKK
# assay: Luciferase reporter assay: suppression of the skatole response of OR5K1 expressed in HEK293 cells
# Type: cell-based
# assay_setup: 4 h; test substance 100 μM mixed with 300 μM skatole, HEK293 cells expressing OR5K1; read-out: Inhibition rate 5K1
measure_name: inhibition at 100 µM

molecule: CC(C)=CCC/C(C)=C/CO [geraniol, 2-trans-3,7-Dimethyl-2,6-octadien-1-ol]
measure_name: inhibition at 100 µM
data_value: 20 to 50%

molecule: CC(CO)CC(C)c1ccccc1 (stereo not shown)
measure_name: inhibition at 100 µM
data_value: 20 to 50%

molecule: CC(=O)OCCC(C)CCC=C(C)C (stereo not shown) [citronellyl acetate, 3,7-Dimethyl-6-octen-1-yl acetate]
measure_name: inhibition at 100 µM
data_value: 20 to 50%

molecule: CC(C=O)C1CCCCC1 (stereo not shown)
measure_name: inhibition at 100 µM
data_value: 20 to 50%

molecule: O=C1CCCCCCCCCCCCCCO1 [pentalide, Oxacyclohexadecan-2-one]
measure_name: inhibition at 100 µM
data_value: 50 to 80%

molecule: CC(C)Cc1ccc(CC(C)C=O)cc1 (stereo not shown)
measure_name: inhibition at 100 µM
data_value: < 20%

molecule: C=C1CCCC(C)(C)C1C=CC(=O)CC (stereo not shown)
measure_name: inhibition at 100 µM
data_value: 50 to 80%

molecule: C=C(C)C1CC=C(C=O)CC1 (stereo not shown)
measure_name: inhibition at 100 µM
data_value: 20 to 50%

molecule: CC(C)(C)c1ccc(CCC=O)cc1
measure_name: inhibition at 100 µM
data_value: 50 to 80%

molecule: CC1COCc2cc3c(cc21)C(C)(C)C(C)C3(C)C (stereo not shown) [Galaxolide]
measure_name: inhibition at 100 µM
data_value: > 80%

molecule: CCCCCC1C(=O)CCC1CC(=O)OC (stereo not shown) [methyl dihydrojasmonate]
measure_name: inhibition at 100 µM
data_value: < 20%

molecule: Cc1ccc(C(C)C)c(O)c1
measure_name: inhibition at 100 µM
data_value: > 80%

molecule: CC=CC(=O)C1C(C)C=CCC1(C)C (stereo not shown)
measure_name: inhibition at 100 µM
data_value: 20 to 50%
